System: MYB mRNA
Assay: RT-qPCR splicing assay, MYB canonical (CJ) and alternative (AJ) junction mRNA
Type: cell-based, human
Conditions: Homo sapiens, 24 h, Table 3B; A673 or K562 cells, 24 h treatment; read-out: MYB AJ (AC50, increase in AJ mRNA)
Below: a set of entries, each annotated with reported AC50.

molecule: Cc1nc2cc(O)c(-c3ccc(N4CC[C@@H](N(C)C(C)(C)C)C4)nn3)cc2o1 [Compound 859]
AC50: 1 to 10 µM

molecule: Cc1nc2cc(O)c(-c3ccc(N4CC[C@H](NC(C)(C)C)C4)nn3)cc2o1 [Compound 813]
AC50: 1 to 10 µM

molecule: Cc1nc2cc(O)c(-c3ccc(N4CCC(NC(C)(C)C(C)C)C4)nn3)cc2o1 (centres unmarked) [Compound 862]
AC50: 1 to 10 µM

molecule: Cc1ncc2cc(-c3ccc(N4CCC(NC(C)(C)C)C4)nn3)c(O)cc2n1 (centres unmarked) [Compound 818]
AC50: > 10 µM

molecule: Cn1ccc2cc(O)c(-c3ccc(N4CC[C@H](NC(C)(C)C)C4)nn3)cc2c1=O [Compound 873]
AC50: 1 to 10 µM

molecule: Cn1c(=O)oc2cc(-c3ccc(N4CCC(NC(C)(C)C)C4)nn3)c(O)cc21 (centres unmarked) [Compound 800]
AC50: 0.1 to 1 µM

molecule: Cc1nc2cc(O)c(-c3cnc(N4CC[C@H](NC(C)(C)C)C4)nn3)cc2o1 [Compound 809]
AC50: 1 to 10 µM

molecule: Cc1nc2cc(O)c(-c3cnc(N4CC[C@H](N(C)C(C)(C)C)C4)nn3)cc2o1 [Compound 857]
AC50: 0.1 to 1 µM
